Data provenance: paper PMC6835155

# SYSTEM TESTED: LIMK1KD (Homo sapiens)
# Construct: His6 (N, cleaved yes); made in house; host or cells: baculovirus; Sf9 for virus, TriEx insect cells for expression
# Sequence (P53667 330-637): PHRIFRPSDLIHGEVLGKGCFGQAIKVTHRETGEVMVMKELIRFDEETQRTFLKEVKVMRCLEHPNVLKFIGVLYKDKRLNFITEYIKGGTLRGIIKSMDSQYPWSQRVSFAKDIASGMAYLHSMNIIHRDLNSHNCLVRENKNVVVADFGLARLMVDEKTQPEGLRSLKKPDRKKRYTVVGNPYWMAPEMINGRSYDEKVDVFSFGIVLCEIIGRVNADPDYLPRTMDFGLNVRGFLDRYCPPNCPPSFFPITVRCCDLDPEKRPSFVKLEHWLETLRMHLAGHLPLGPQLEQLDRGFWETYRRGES
# METHOD SUMMARY: Differential (dynamic) scanning fluorimetry (DSF) assay, LIMK1KD
# Format: binding
# RUN PARAMETERS: 2 µM LIMK1KD, compound 10 µM, single shot; read-out: TM Shift LIMK1 (K)
Records here are stratified by ΔTm at 10 µM; strata: bin A (below -0.2 °C), bin B (-0.2 °C to below 0.9 °C), bin C (0.9 °C or more)

Solved entries:
molecule="C[C@]12O[C@H](C[C@]1(O)CO)n1c3ccccc3c3c4c(c5c6ccccc6n2c5c31)CNC4=O [Lestaurtinib]" system_tested="LIMK1KD (Homo sapiens)" answer_label="bin C"
molecule="CS(=O)(=O)N1CCc2c(-c3cnc(N)nc3)nc(N3CCOCC3)nc21 [CH5132799]" system_tested="LIMK1KD (Homo sapiens)" answer_label="bin C"
molecule="O=C(NOCC1CC1)c1ccc(F)c(F)c1Nc1ccc(I)cc1Cl [PD184352 (CI-1040)]" system_tested="LIMK1KD (Homo sapiens)" answer_label="bin B"

// next entry
Q: Returns: class label. Input: Clc1ccc(Nc2nnc(Cc3ccncc3)c3ccccc23)cc1 [Vatalanib (PTK787) 2HCl, Vatalanib]
A: bin A
